Consider the following compounds; for each one, report its cell viability.
System: WHIM30 (cells of a triple-negative basal-like breast cancer xenograft);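 also: cells dissociated from PDX tumors propagated in female NSG mouse mammary fat pads, vehicle control 0.1% DMSO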
Experiment: cell viability (% of vehicle); higher = less cytotoxic
Conditions: 1 µM; 72 h
Answer with the value's number alone.

The compound listed as CC[C@@H]1/C=C(\C)C[C@H](C)C[C@H](OC)[C@H]2O[C@@](O)(C(=O)C(=O)N3CCCC[C@H]3C(=O)O[C@H](/C(C)=C/[C@@H]3CC[C@H](Cl)[C@H](OC)C3)[C@H](C)[C@@H](O)CC1=O)[C@H](C)C[C@@H]2OC [Pimecrolimus] shows cell viability equal to 86

The compound listed as N.N.O=C([O-])C1(C(=O)[O-])CCC1.[Pt+2] [Carboplatin] shows cell viability equal to 77

The compound listed as COC(=O)C1=C(C)NC(C)=C(C(=O)OCCN(C)Cc2ccccc2)C1c1cccc([N+](=O)[O-])c1.Cl (stereo unspecified) [Nicardipine HCl] shows cell viability equal to 100

The compound listed as CO[C@H]1C[C@@H]2CC[C@@H](C)[C@@](O)(O2)C(=O)C(=O)N2CCCC[C@H]2C(=O)O[C@H]([C@H](C)C[C@@H]2CC[C@@H](O)[C@H](OC)C2)CC(=O)[C@H](C)/C=C(\C)[C@@H](O)[C@@H](OC)C(=O)[C@H](C)C[C@H](C)/C=C/C=C/C=C/1C [Rapamycin (Sirolimus)] shows cell viability equal to 75.4

The compound listed as CC1=C(C(=O)OC(C)C)C(c2cccc([N+](=O)[O-])c2)C(C(=O)OC2CN(C(c3ccccc3)c3ccccc3)C2)=C(N)N1 (stereo unspecified) [Azelnidipine] shows cell viability equal to 88.3

The compound listed as COc1cc(C(=O)O)ccc1NC(=O)C1NC(CC(C)(C)C)C(C#N)(c2ccc(Cl)cc2F)C1c1cccc(Cl)c1F (stereo unspecified) shows cell viability equal to 91.3

* * *

System: HCI03 (cells of an ER-positive luminal breast cancer xenograft);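 also: PDX cells carrying CMV promoter-driven luciferase, viability read as total photon flux per second by IVIS imaging following D-luciferin, vehicle control 0.1% DMSO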
Assay: cell viability (% of vehicle); higher = less cytotoxic
Conditions: 10 µM; 72 h
quantity: cell viability
Answer with the value's number alone.

The compound listed as CC1CC2C3CCC4=CC(=O)C=CC4(C)C3(F)C(O)CC2(C)C1(O)C(=O)CO (centres undefined) shows cell viability equal to 177

The compound listed as `Nc1nc(N)nc(-c2cc(Cl)ccc2Cl)n1` shows cell viability equal to 113

The compound listed as O=CC(O)C(O)C(O)CO (centres undefined) shows cell viability equal to 96.1

The compound listed as CNC(=O)C(NC(=O)C(CC(C)C)C(O)C(=O)NO)C(C)(C)C (centres undefined) shows cell viability equal to 111

The compound listed as `C[C@@H]1C[C@H]2[C@H]3CCC4=CC(=O)C=C[C@]4(C)[C@@]3(F)[C@@H](O)C[C@]2(C)[C@@]1(O)C(=O)CO` shows cell viability equal to 138

The compound listed as C=CCc1cc(OC)c(O)c(C(=O)NCCO)c1 [Alibendol] shows cell viability equal to 139

The compound listed as `CCc1nc(N)nc(N)c1-c1ccc(Cl)cc1` shows cell viability equal to 129

The compound listed as `COc1cc(CNC(=O)CCCCC=CC(C)C)ccc1O` shows cell viability equal to 120

The compound listed as `Cc1nnc(NS(=O)(=O)c2ccc(N)cc2)s1` shows cell viability equal to 119

* * *

Consider the following molecules; for each one, report its cell viability of combination.
Tested on: HCI01 (cells of a triple-negative basal-like breast cancer xenograft)
Test: cell viability of combination (% of vehicle); higher = less cytotoxic
Details: 1 µM; 72 h; partner dose: 10 nM
Answer with the value's number alone.

The molecule listed as CC(C)(C)Cn1c(N)nc2ccc(-c3[nH]c(C(C)(C)C)nc3-c3ccc(F)cc3)nc21.CS(=O)(=O)O.CS(=O)(=O)O + CC(C)C[C@H](NC(=O)[C@H](CCc1ccccc1)NC(=O)CN1CCOCC1)C(=O)N[C@@H](Cc1ccccc1)C(=O)N[C@@H](CC(C)C)C(=O)[C@@]1(C)CO1 shows cell viability of combination equal to 61.9

The molecule listed as CC(C)c1nc(CN(C)C(=O)NC(C(=O)NC(Cc2ccccc2)CC(O)C(Cc2ccccc2)NC(=O)OCc2cncs2)C(C)C)cs1 (configuration not stated) [Ritonavir] + CC(C)C[C@H](NC(=O)[C@H](CCc1ccccc1)NC(=O)CN1CCOCC1)C(=O)N[C@@H](Cc1ccccc1)C(=O)N[C@@H](CC(C)C)C(=O)[C@@]1(C)CO1 shows cell viability of combination equal to 73

The molecule listed as CNC(=O)c1cc(Oc2ccc(NC(=O)Nc3ccc(Cl)c(C(F)(F)F)c3)c(F)c2)ccn1 [Regorafenib] + CC(C)C[C@H](NC(=O)[C@H](CCc1ccccc1)NC(=O)CN1CCOCC1)C(=O)N[C@@H](Cc1ccccc1)C(=O)N[C@@H](CC(C)C)C(=O)[C@@]1(C)CO1 shows cell viability of combination equal to 74.6

The molecule listed as CN1CCN(CCCN2c3ccccc3Sc3ccc(C(F)(F)F)cc32)CC1.Cl.Cl [Trifluoperazine 2HCl] + CC(C)C[C@H](NC(=O)[C@H](CCc1ccccc1)NC(=O)CN1CCOCC1)C(=O)N[C@@H](Cc1ccccc1)C(=O)N[C@@H](CC(C)C)C(=O)[C@@]1(C)CO1 shows cell viability of combination equal to 76.2

The molecule listed as Cc1c(C(=O)NN2CCCCC2)nn(-c2ccc(Cl)cc2Cl)c1-c1ccc(Cl)cc1 [Rimonabant] + CC(C)C[C@H](NC(=O)[C@H](CCc1ccccc1)NC(=O)CN1CCOCC1)C(=O)N[C@@H](Cc1ccccc1)C(=O)N[C@@H](CC(C)C)C(=O)[C@@]1(C)CO1 shows cell viability of combination equal to 78.4

The molecule listed as CNCCC(Oc1cccc2ccccc12)c1cccs1.Cl (configuration not stated) [Duloxetine HCl] + CC(C)C[C@H](NC(=O)[C@H](CCc1ccccc1)NC(=O)CN1CCOCC1)C(=O)N[C@@H](Cc1ccccc1)C(=O)N[C@@H](CC(C)C)C(=O)[C@@]1(C)CO1 shows cell viability of combination equal to 81.6

The molecule listed as CCCCCCCCOc1ccccc1C(=O)Nc1ccc(C(=O)OCC[N+](C)(CC)CC)cc1.[Br-] [Otilonium Bromide] + CC(C)C[C@H](NC(=O)[C@H](CCc1ccccc1)NC(=O)CN1CCOCC1)C(=O)N[C@@H](Cc1ccccc1)C(=O)N[C@@H](CC(C)C)C(=O)[C@@]1(C)CO1 shows cell viability of combination equal to 81.5
